From: patent EP1044000B1

Assay: Pharmacokinetic study of Compound A in healthy human males (Example 10)
Format: in vivo
Conditions: male, plasma, po, 1200 mg, 1200 mg single oral dose, suspension of sulfate salt, fasted, plasma 8 hours after dosing, mean (CV %), read-out: C8 hrs
property: concentration at 8 h (nM)
The answer is to be given in nM; state only the numeric part.

Task: Which value of concentration at 8 h has been reported for CC(C)(C)NC(=O)[C@@H]1CN(Cc2cc3ccccc3o2)CCN1C[C@@H](O)C[C@@H](Cc1ccccc1)C(=O)N[C@H]1c2ccccc2C[C@H]1O [Compound A] in the records?
Result: 338

###

Experiment: Pharmacokinetic study of Compound A in healthy human males (Example 10)
Format: in vivo
Conditions: male, plasma, po, 800 mg, 800 mg single oral dose, suspension of sulfate salt, fasted, mean of 6 subjects (CV %)
Method: A double-blind, single-rising dose, alternating two-panel, four-period, placebo-controlled study was conducted for Compound A in healthy adult males in the fasted state. […] The safety of the subjects was monitored prior and subsequent to dosing by clinical adverse event reporting, measurement of vital signs, physical examinations, blood and urine laboratory safety tests, and ECGs. […]
property: Cmax (nM)
Dear colleague, please return just the value in nM, with no unit written.

Task: Which Cmax is listed for CC(C)(C)NC(=O)[C@@H]1CN(Cc2cc3ccccc3o2)CCN1C[C@@H](O)C[C@@H](Cc1ccccc1)C(=O)N[C@H]1c2ccccc2C[C@H]1O ?
Result: 568
